Assay: qHTS to identify inhibitors of the type 1 interferon - major histocompatibility complex class I in skeletal muscle: primary screen against the NCATS Pharmaceutical Collection (AID 1347407);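 note: luminescence of HiBiT knocked into endogenous HLA-B as interferon-induced MHC class I level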
Settings: human skeletal muscle cells, IFN-b-induced MHC-I HiBiT luminescence, 24 h; series mostly up to 45.9 µM
Text: Assay Submitter (PI): Travis B. Kinder Ph.D. & James Inglese Ph.D. Assay Development and Screening Technology Laboratory (ADST) National Center for Advancing Translational Sciences (NCATS), Rockville, MD National Institute of Health (NIH), Bethesda, Maryland […]
Inconclusive results are not listed. Active and inactive are the calls of the source. Calls come from the whole dose curve; as a rule, active = well fitted inhibition curve with a large enough effect; inconclusive = small, poorly fitted or top-dose-only effect; inactive = flat fitted curve, though single readings scatter.
ASSAY_ENDPOINT: outcome

>>> df
                                   molecule  assay_endpoint  value_measured
0                   CC[N+](C)(C)c1cccc(O)c1         outcome        inactive
1  O=C(CCCN1CCC(O)(c2cccc(C(F)(F)F)c2)CC1)c1ccc(F)cc1         outcome        inactive
2  CN(C)[C@@H]1C(=O)C(C(N)=O)=C(O)[C@@]2(O)C(=O)C3=C(O)c4c(O)ccc(Cl)c4[C@@H](O)[C@H]3C[C@@H]12         outcome        inactive
3                      C[N+](C)(C)CCOC(N)=O         outcome        inactive
4  CC(C)(C)NCC(O)c1cc(O)cc(O)c1 (stereo not given)         outcome        inactive
5  CC(C)(C)c1ccc(C(=O)CCCN2CCC(OC(c3ccccc3)c3ccccc3)CC2)cc1         outcome        inactive
6                   NC(=Nc1ccccc1)Nc1ccccc1         outcome        inactive
7  OC(CCN1CCCCC1)(c1ccccc1)C1CCCCC1 (stereo not given)         outcome        inactive

For each listed entry, give its outcome.
1. NC1=NCC2c3ccccc3Cc3ccccc3N12 (stereo not given)
2. COc1ccc([C@@H]2Sc3ccccc3N(CCN(C)C)C(=O)[C@@H]2OC(C)=O)cc1
3. C[C@@H](O)[C@H]1C(=O)N2C(C(=O)O)=C(SCCN=CN)C[C@H]12
4. CCc1c(C)[nH]c2c1C(=O)C(CN1CCOCC1)CC2 (stereo not given)
5. CCCCNc1c(C(=O)OCC)c(C)nc2c1cnn2CC
6. O=C(O)CN(CCN(CC(=O)O)CC(=O)O)CCN(CC(=O)O)CC(=O)O
7. O=C(CCNNC(=O)c1ccncc1)NCc1ccccc1
8. Cc1scc2c1N(C(=O)CN1CCN(C)CC1)c1ccccc1NC2=O

Response line:
1. inactive
2. inactive
3. inactive
4. inactive
5. inactive
6. inactive
7. inactive
8. inactive

For each listed entry, give its outcome.
1. C[N+](C)(C)CCCCCCCCCC[N+](C)(C)C
2. CCN(CC)CCCN(c1ccccc1)C1Cc2ccccc2C1
3. COC(=O)[C@@H](N)Cc1ccc(O)c(O)c1
4. CNCCCN1c2ccccc2CCc2ccccc21
5. c1ccc2c(c1)CCCC2C1=NCCN1 (stereo not given)
6. CSc1ccc(C(=O)c2[nH]c(=O)[nH]c2C)cc1

Response line:
1: inactive; 2: inactive; 3: inactive; 4: inactive; 5: inactive; 6: inactive

For each listed entry, give its outcome.
1. CC(N=C(NC#N)Nc1ccncc1)C(C)(C)C (stereo not given)
2. CCN1CCc2nc(N)oc2CC1
3. CCCCCN(CCCCC)C(=O)C(CCC(=O)O)NC(=O)c1ccc(Cl)c(Cl)c1 (stereo not given)

Response line:
1. inactive
2. inactive
3. inactive
